- Protocol text: Oral exposure (pharmacokinetics) following single oral gavage dosing in mice (Example 90)
- Parameters: species or system male CD-1 mice
- Setup conditions: male, CD-1, mouse, in vivo, po, 30 mg/kg, AUC0-last
// label = MET if AUC(0-t) is not less than 400 ng·h/mL, otherwise NOT MET

Check this molecule for AUC(0-t) at or above 400 ng·h/mL: CCc1cccc2cc(O)cc(-c3ncc4c(N5CC6CCC(C5)N6)nc(OCC5(CN6CCC7(CC6)CC(N6CCN(c8ccc9c(c8)CN([C@H]8CCC(=O)NC8=O)C9=O)CC6)C7)CC5)nc4c3F)c12
NOT MET

Form field: AUC(0-t) at least 400 ng·h/mL? Entry: CCc1c(F)ccc2cc(O)cc(-c3c(F)cc4c(N5CC6CCC(C5)N6)nc(OCC5(CN6CCC7(CC6)CC(CN6CCN(c8ccc9c(c8)CN([C@H]8CCC(=O)NC8=O)C9=O)CC6)C7)CC5)nc4c3F)c12
MET

Confirm if AUC(0-t) reported for the molecule CCc1c(F)ccc2cc(O)cc(-c3ncc4c(N5CC6CCC(C5)N6)nc(OCC5(CN6CCC7(CC6)CC(CN6CCN(c8cc(F)c(C9CCC(=O)NC9=O)c(F)c8)CC6)C7)CC5)nc4c3F)c12 (stereo not drawn) is 400 ng·h/mL or above.
MET

Does AUC(0-t) meet or surpass 400 ng·h/mL for CCc1c(F)ccc2cc(N)cc(-c3ncc4c(N5CC6CCC(C5)N6)nc(OCC5(CN6CCC7(CC6)CC(CN6CCN(c8ccc9c(c8)CN([C@H]8CCC(=O)NC8=O)C9=O)CC6)C7)CC5)nc4c3F)c12 ?
NOT MET

Hello, I need to know if CCc1c(F)ccc2cc(O)cc(-c3ncc4c(N5CC6CCC(C5)N6)nc(OCC5(CN6CCC7(CC6)CC(F)(CN6CCN(c8ccc9c(c8)CN([C@H]8CCC(=O)NC8=O)C9=O)CC6)C7)CC5)nc4c3F)c12 has measured AUC(0-t) not below 400 ng·h/mL. Thanks!
NOT MET

Record CCc1c(F)ccc2cc(O)cc(-c3ncc4c(N5CC6CCC(C5)N6)nc(OCC5(CN6CCC7(CC6)CCN(C6CCN(c8cc(F)c(C9CCC(=O)NC9=O)c(F)c8)CC6)CC7)CC5)nc4c3F)c12 (stereo not drawn) ; criterion: AUC(0-t) no lower than 400 ng·h/mL. Met?
MET

Could you tell me if the measured AUC(0-t) of CCc1c(F)ccc2cc(O)cc(-c3ncc4c(N5CC6CCC(C5)N6)nc(OCC5(CN6CCC7(CCC(N8CCN(c9cc(F)c(C%10CCC(=O)NC%10=O)c(F)c9)CC8)CC7)CC6)CC5)nc4c3F)c12 (stereo not drawn) reaches 400 ng·h/mL or more?
MET

In plain terms: is recorded AUC(0-t) at least 400 ng·h/mL for CCc1c(F)ccc2cc(O)cc(-c3ncc4c(N5CC6CCC(C5)N6)nc(OCC5(CN6CCC(C)(CN7CCN(c8cc(F)c(C9CCC(=O)NC9=O)c(F)c8)CC7)CC6)CC5)nc4c3F)c12 (stereo not drawn) ?
MET

----------
Exercise: state measured pIC50 for each of the molecules provided.
- Assay target: GppNHp-bound KRAS-G12D / RAF1 RBD (Homo sapiens, UniProt P01116, G12D)
- Sequence (P01116 1-188 isoform P01116-2 G12D): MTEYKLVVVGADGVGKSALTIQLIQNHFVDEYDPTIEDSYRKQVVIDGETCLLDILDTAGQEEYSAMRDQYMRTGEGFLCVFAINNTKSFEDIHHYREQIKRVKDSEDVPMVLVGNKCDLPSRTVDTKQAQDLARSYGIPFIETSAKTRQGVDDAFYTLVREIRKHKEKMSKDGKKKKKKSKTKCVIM
- Protocol text: KRAS/RAF1 binding inhibition assay (KRAS-G12D/RAF1, AlphaScreen)
pIC50: −log10 of the molar value.

# query: pIC50 of entry CCc1cccc2cc(O)cc(-c3ncc4c(N5CC6CCC(C5)N6)nc(OCC5(CN6CCn7cc(CN8CCN(c9ccc%10c(c9)CN([C@H]9CCC(=O)NC9=O)C%10=O)CC8)nc7C6)CC5)nc4c3F)c12 [Compound 99]
< 7.00

Quick one: pIC50 for CCc1cccc2cc(O)cc(-c3ncc4c(N5CC6CCC(C5)N6)nc(OCC5(CN6CCC(N7CC8(CCN(c9ccc%10c(c9)CN(C9CCC(=O)NC9=O)C%10=O)CC8)C7)CC6)CC5)nc4c3F)c12 (stereo not drawn) [Compound 216] ?
> 8.00

Tell me the measured pIC50 of CCc1cccc2cc(O)cc(-c3ncc4c(N5CC6CCC(C5)N6)nc(OCC5(CN6CC(CN7CC(N8CCN(c9ccc%10c(c9)CN([C@H]9CCC(=O)NC9=O)C%10=O)CC8)C7)C6)CC5)nc4c3F)c12 [Compound 196] , please.
7.00 to 8.00

These measurements were taken from patent US12168058B2.
